Reported values of inhibition in vivo at 3 mg/kg for individual entries
Test system: total number of leukocytes in bronchoalveolar lavage fluid after LPS inhalation
Experiment: LPS acute inflammation model in rats
Type: in vivo
Conditions: Rattus norvegicus, Leukocyte, po, 3 mg/kg orally one hour before LPS inhalation, total leukocytes in BALF 3 hours after LPS inhalation, read-out: Inhibition ratio
Experimental: 3 mg/kg of the compounds were orally administered to rats one hour before inhalation of lipopolysaccharide (LPS) from E. coli serotype 055:B5, rats were inhalted nebulizing LPS solution (50 mL) by nebulizer for 30 minutes. […] The total number of leukocytes was counted under a microscope to determine the inhibition ratio. […]

molecule: COc1ccc(C(=O)Cc2c(Cl)cncc2Cl)c2c(Cl)c(C3CC3)nn12
inhibition in vivo at 3 mg/kg: ≥ 60%
//
molecule: COc1ccc(C=Cc2ccncc2)c2cc(C(F)(F)F)nn12
inhibition in vivo at 3 mg/kg: 30 to 60%
//
molecule: COc1ccc(C(=O)Cc2c(Cl)c[n+]([O-])cc2Cl)c2cc(C#N)nn12
inhibition in vivo at 3 mg/kg: ≥ 60%
//
molecule: COc1ccc(CCc2ccncc2)c2cc(C(F)(F)F)nn12
inhibition in vivo at 3 mg/kg: ≥ 60%
//
molecule: COc1ccc(C(=O)Cc2c(Cl)c[n+]([O-])cc2Cl)c2cc(C(F)(F)F)nn12
inhibition in vivo at 3 mg/kg: ≥ 60%
//
molecule: COc1ccc(C(=O)Cc2c(Cl)cncc2Cl)c2cc(C(F)(F)F)nn12
inhibition in vivo at 3 mg/kg: ≥ 60%
//
molecule: COc1ccc(/C=C/c2c(Cl)cncc2Cl)c2cc(C(F)(F)F)nn12
inhibition in vivo at 3 mg/kg: 30 to 60%
//
molecule: COc1ccc(C(=O)Cc2ccncc2)c2cc(C3CC3)nn12
inhibition in vivo at 3 mg/kg: ≥ 60%
//
molecule: COc1ccc(C(=O)Cc2cc[n+]([O-])cc2)c2cc(C(F)(F)F)nn12
inhibition in vivo at 3 mg/kg: ≥ 60%
//
molecule: COc1ccc(C(=O)Cc2c(Cl)c[n+]([O-])cc2Cl)c2cc(C(F)F)nn12
inhibition in vivo at 3 mg/kg: ≥ 60%
//
molecule: COc1ccc(CCc2cc[n+]([O-])cc2)c2cc(C(F)(F)F)nn12
inhibition in vivo at 3 mg/kg: ≥ 60%
